# assay system: human VEGF (human, UniProt P15692 27-191)
# Sequence (P15692 other isoform, or with tags, fused parts or gaps limits assumed): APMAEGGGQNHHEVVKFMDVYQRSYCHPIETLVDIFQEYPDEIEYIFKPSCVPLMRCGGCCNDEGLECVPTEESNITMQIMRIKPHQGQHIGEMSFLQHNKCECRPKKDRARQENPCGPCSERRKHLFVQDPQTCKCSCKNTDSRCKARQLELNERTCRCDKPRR
# experiment description: cell-based or functional assay
recorded metric: Inhibitory Activity (IC50, nM) against hVEGF in cell-based assays
Numbers only, in nM.

- binder: "monomeric chagasin VEGF variant L4X6-7 (designed binder) MSHKVTKAHNGATLTVAVGELVEIQLPSNYFREGFAWYFEGGTKESPNESMFTVENKYFPHVQWGWGAGGTEHFHVTVKAAGTHAVNLTYMAPWVGPSRELERFTVYLKAN"
  val: 65

Look up Inhibitory Activity (IC50, nM) against hVEGF in cell-based assays for the entries below, preserving their order.
1. chagasin VEGF variant L4X8-9 (designed binder) MSHKVTKAHNGATLTVAVGELVEIQLPSNYFYDGFAWYFEGGTKESPNESMFTVENKYFPSGSYMSYSGAGGTEHFHVTVKAAGTHAVNLTYMAPWLGPSRDLERFTVYLKAN
2. chagasin VEGF variant E4B-7 (designed binder) MSHKVTKAHNGATLTVAVGELVEIQLPSNYYYDGFAWYFEGGTKESPNESMFTVENKYFPNVNGSHAWGAGGTEHFHVTVKAAGTHAVNLTYMAPWSGPSRFLERFTVYLKAN
3. chagasin VEGF variant E4B-5 (designed binder) MSHKVTKAHNGATLTVAVGELVEIQLPSNYFYEGFAWYFEGGTKESPNESMFTVENKYFPNGPGLGVYGAGGTEHFHVTVKAAGTHAVNLTYMAPWQGPSRELERFTVYLKAN

A)
300
550
800
